ASSAY_EXPLANATION: Intrinsic clearance in mouse liver microsomes
Format: ADME, Microsome
MEASUREMENT_PARAMETERS: read-out: CLH
PROPERTY_MEASURED: microsomal CLint

compound="Cc1cc(C)c2[nH]ccc2c1CN1CCCCC1c1ccc(C(=O)O)cc1 (stereo unspecified)" property_measured="microsomal CLint" value_reported="< 3.4 µL/min/mg"

* * *

ASSAY_EXPLANATION: Protein binding in mouse plasma at 5 uM
Format: ADME, cell-free
MEASUREMENT_PARAMETERS: read-out: PPB
PROPERTY_MEASURED: fraction unbound at 5 µM

compound="CCO[C@H]1CCN(Cc2c(OC)cc(C)c3[nH]ccc23)[C@H](c2ccc(C(=O)O)cc2)C1 [IPTACOPAN]" value_reported="0.26 to 0.43"

* * *

Let's look at some molecules and their measured Vdss.
ASSAY_EXPLANATION: Volume of distribution at steady state in C57BL/6 mouse at 1 mg/kg, iv after 5 mins to 7 hrs by HPLC-MS/MS analysis
Type: ADME, organism-based
MEASUREMENT_PARAMETERS: mouse, in vivo
PROPERTY_MEASURED: Vdss (L/kg)

molecule="CCO[C@H]1CCN(Cc2c(OC)cc(C)c3[nH]ccc23)[C@H](c2ccc(C(=O)O)cc2)C1 [IPTACOPAN]" property_measured=Vdss value_reported=6.6
molecule=CO[C@H]1CCN(Cc2c(C)cc(C)c3[nH]ccc23)[C@H](c2ccc(C(=O)O)cc2)C1 property_measured=Vdss value_reported=4.3
molecule=CCO[C@H]1CCN(Cc2c(C3CC3)cc(C)c3[nH]ccc23)[C@H](c2ccc(C(=O)O)cc2)C1 property_measured=Vdss value_reported=3
molecule="Cc1cc(C)c2[nH]ccc2c1CN1CCCCC1c1ccc(C(=O)O)cc1 (centres undefined)" property_measured=Vdss value_reported=3.1

* * *

pIC50: −log10 of the molar value.
Each entry below carries its measured pIC50, system: Alpha-1A adrenergic receptor (Homo sapiens).
Sequence (P35348 whole entry): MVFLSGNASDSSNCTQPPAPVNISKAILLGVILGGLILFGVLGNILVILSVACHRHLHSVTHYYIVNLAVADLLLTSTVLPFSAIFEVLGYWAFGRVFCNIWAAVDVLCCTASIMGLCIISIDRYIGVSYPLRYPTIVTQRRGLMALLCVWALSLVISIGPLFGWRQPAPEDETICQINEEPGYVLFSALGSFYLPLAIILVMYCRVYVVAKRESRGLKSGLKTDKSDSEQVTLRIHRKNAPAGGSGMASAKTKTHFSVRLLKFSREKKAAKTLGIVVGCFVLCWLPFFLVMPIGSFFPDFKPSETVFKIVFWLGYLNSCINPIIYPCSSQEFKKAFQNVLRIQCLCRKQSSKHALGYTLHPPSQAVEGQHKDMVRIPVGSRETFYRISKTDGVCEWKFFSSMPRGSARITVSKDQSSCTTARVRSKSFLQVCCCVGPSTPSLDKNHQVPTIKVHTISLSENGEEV
PROPERTY_MEASURED: pIC50

chemical_string=Cc1cc(Br)c(NC2=NCCN2)c2ccccc12 result_qualifier== value_reported=6.52
chemical_string=CO[C@H]1CCN(Cc2c(C)cc(C)c3[nH]ccc23)[C@H](CO)C1 result_qualifier=< value_reported=4.52
